Target: Serine/threonine-protein kinase PAK 4 (Homo sapiens) (UniProt O96013)
Sequence (O96013 whole entry, looked up): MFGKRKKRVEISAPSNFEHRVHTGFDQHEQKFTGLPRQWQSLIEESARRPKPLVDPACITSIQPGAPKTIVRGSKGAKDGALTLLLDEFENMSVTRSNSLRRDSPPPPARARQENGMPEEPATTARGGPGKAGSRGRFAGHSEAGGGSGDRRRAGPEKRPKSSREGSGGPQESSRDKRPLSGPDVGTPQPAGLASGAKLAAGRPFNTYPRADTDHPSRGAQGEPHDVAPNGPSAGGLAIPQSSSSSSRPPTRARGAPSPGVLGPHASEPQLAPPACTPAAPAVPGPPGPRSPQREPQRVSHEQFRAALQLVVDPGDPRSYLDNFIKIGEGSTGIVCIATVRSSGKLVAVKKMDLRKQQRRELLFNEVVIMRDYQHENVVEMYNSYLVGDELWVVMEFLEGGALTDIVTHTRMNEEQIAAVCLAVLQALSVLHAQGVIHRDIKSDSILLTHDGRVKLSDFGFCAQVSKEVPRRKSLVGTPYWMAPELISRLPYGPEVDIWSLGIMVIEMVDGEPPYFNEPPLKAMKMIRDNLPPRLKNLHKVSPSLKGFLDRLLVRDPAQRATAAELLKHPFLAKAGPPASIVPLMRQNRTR
Details: at 10 µM
READOUT LABEL: residual activity (%)
Give bare numbers, in %.

The cases that follow already have their residual activity on record.
COMPOUND	residual activity (%)
O=C1Cc2c([nH]c3ccc(Br)cc23)-c2ccccc2N1	3
CCCCc1c(-c2ccc(OC)cc2)[nH]c2nccnc12	68
CCCC(=O)Oc1ccc2[nH]c(C(=O)c3cc4ccccc4[nH]3)cc2c1	84
O=C1Nc2ccc(Cl)cc2/C1=C/c1cc(Cl)c(O)c(Cl)c1	68
O=C(O)/C=C/c1cc(Br)c(Br)c(Br)c1Br	101
Cn1c2ccccc2c2c3c(c4c5ccccc5n(CCC#N)c4c21)CNC3=O	2
COc1ccc(Cl)cc1NC(=O)Nc1cc(C)nc2ccccc12	88
O=c1cc(N2CCOCC2)oc2c1ccc1ccccc12	94
CC(C)N(CCC(=O)c1ccc2ccccc2c1)Cc1ccccc1	79
Nc1nc(Nc2ccc(S(N)(=O)=O)cc2)nn1C(=O)c1c(F)cccc1F	17

Could I get residual activity for every one of these entries?
1. CN(C)S(=O)(=O)c1ccc2c(c1)/C(=C/c1cc3c([nH]1)CCCC3)C(=O)N2
2. Cn1sc(=O)n(Cc2ccccc2)c1=O
3. O=C(NC(NC(=S)Nc1ccc(F)c([N+](=O)[O-])c1)C(Cl)(Cl)Cl)C(c1ccccc1)c1ccccc1 (stereo not drawn)

69
89
97

---

Target: Rhodopsin kinase GRK7 (Homo sapiens)
Details: at 10 µM
READOUT LABEL: residual activity (%)
Numbers only, in %.

The cases that follow already have their residual activity on record.
SMI	READOUT LABEL	OBSERVED VALUE
O=C(O)/C=C/c1cc(Br)c(Br)c(Br)c1Br	residual activity	95
CCCCc1c(-c2ccc(OC)cc2)[nH]c2nccnc12	residual activity	92

Lab note: next molecule to report on.
Request the reported residual activity associated with O=C(c1ccccc1)c1ccc(N2CCOCC2)cc1O
95

---

Molecular target: Tyrosine-protein kinase Fes/Fps (Homo sapiens) (UniProt P07332)
Sequence (P07332 whole entry): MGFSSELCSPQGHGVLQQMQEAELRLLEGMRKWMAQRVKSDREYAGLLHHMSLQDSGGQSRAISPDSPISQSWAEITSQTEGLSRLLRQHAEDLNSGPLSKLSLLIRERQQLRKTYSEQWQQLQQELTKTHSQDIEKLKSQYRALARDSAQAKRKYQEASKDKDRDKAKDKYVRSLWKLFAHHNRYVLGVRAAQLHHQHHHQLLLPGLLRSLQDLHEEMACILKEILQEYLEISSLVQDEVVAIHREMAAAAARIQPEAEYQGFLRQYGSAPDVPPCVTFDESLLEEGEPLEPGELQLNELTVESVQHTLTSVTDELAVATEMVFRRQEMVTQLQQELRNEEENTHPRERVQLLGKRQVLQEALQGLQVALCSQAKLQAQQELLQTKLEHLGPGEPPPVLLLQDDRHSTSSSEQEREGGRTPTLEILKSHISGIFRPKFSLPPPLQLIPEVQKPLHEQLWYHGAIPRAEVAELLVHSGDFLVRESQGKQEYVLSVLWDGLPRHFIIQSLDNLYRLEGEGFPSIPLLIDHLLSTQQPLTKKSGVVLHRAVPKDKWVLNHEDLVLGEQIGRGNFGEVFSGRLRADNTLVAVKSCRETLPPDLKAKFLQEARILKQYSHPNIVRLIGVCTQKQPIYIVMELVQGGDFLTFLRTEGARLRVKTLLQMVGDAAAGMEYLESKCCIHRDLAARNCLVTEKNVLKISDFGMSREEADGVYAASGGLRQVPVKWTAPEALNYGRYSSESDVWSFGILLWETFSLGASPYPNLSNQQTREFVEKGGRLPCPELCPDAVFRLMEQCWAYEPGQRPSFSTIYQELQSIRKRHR
Conditions: at 1 µM
READOUT LABEL: residual activity

SMI	READOUT LABEL	OBSERVED VALUE
COc1cc2nccc(Oc3ccc(NC(=S)NC(=O)c4ccccc4C)cc3)c2cc1OC	residual activity	79%
CCOC(=O)c1c(C)[nH]c(/C=C2\C(=O)Nc3ccccc32)c1C	residual activity	119%
O=C(c1ccccc1)c1ccc(N2CCOCC2)cc1O	residual activity	116%
O=C(O)/C=C/c1cc(Br)c(Br)c(Br)c1Br	residual activity	97%

Could I get residual activity for every one of these entries?
1. O=C1Cc2c([nH]c3ccc(Br)cc23)-c2ccccc2N1
2. N#C/C(=C1/Nc2ccccc2S1)c1ccnc(NCCc2cccnc2)n1
3. COc1cc2nccc(Oc3ccc(NC(=O)Nc4cc(C)on4)c(Cl)c3)c2cc1OC
4. CN(C)S(=O)(=O)c1ccc2c(c1)/C(=C/c1cc3c([nH]1)CCCC3)C(=O)N2
5. NCCNc1ncc(C(N)=O)c(Nc2cccc(C(F)(F)F)c2)n1

1. 63%
2. 96%
3. 78%
4. 82%
5. 32%

---

Target: Serine/threonine-protein kinase NLK (Homo sapiens)
Conditions: at 10 µM
Assignment: determine reported residual activity for the given compounds.
Answers are plain numbers, in %.

The cases that follow already have their residual activity on record.
SMI	residual activity / %
O=C1NC(=O)C(c2c[nH]c3ccccc23)=C1c1c[nH]c2ccccc12	71
Nc1nc(Nc2ccc(S(N)(=O)=O)cc2)nn1C(=O)c1c(F)cccc1F	34
O=C1C(Cl)=C(N2C(=O)CCC2=O)C(=O)c2ccccc21	88

Could I get residual activity for every one of these entries?
1. c1ccc(-c2cnc(Nc3ccc(OCCN4CCCC4)cc3)s2)cc1
2. Nc1nccc(-c2c(-c3ccc(F)cc3)ncn2C2CCNCC2)n1

56
9

Request the reported residual activity associated with NCCNc1ncc(C(N)=O)c(Nc2cccc(C(F)(F)F)c2)n1
81
